Origin of measurements: patent US7888386B2

Listed below: log10(Ki) values for each entry.
# ASSAYED SYSTEM: hNET (Homo sapiens, UniProt P23975)
# Construct: expressed in transfected cells; host or cells: HEK-293 derived cell line, stably transfected; membrane preparation
# Sequence (P23975 whole entry): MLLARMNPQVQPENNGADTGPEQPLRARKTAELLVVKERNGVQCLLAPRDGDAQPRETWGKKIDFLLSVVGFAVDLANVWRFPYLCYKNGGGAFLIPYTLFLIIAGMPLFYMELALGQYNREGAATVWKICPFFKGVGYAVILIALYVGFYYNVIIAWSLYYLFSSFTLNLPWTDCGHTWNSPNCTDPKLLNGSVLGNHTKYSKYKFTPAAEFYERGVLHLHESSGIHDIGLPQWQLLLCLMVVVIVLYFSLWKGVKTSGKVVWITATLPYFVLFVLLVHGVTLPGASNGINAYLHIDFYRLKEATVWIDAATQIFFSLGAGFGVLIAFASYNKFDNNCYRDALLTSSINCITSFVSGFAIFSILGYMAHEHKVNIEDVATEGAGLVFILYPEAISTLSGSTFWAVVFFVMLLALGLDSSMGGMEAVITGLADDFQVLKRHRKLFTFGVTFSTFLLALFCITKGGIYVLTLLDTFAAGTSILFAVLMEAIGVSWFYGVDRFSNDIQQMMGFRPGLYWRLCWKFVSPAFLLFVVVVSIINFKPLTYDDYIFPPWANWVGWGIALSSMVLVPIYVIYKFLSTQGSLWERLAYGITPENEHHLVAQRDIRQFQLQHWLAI
# MEASUREMENT PROTOCOL: hNET binding assay (Assay 1)
# STATED CONDITIONS: hNET binding assay; read-out: NET pKi (converted)
TEST READOUT: log10(Ki) (log10 of the value in nM)

{"columns": ["MOLECULE", "MEAS VALUE"],
 "data": [
  ["Clc1cc(Br)cc(OC(c2ccccc2)C2CCNC2)c1 (stereo not shown)", 0.40],
  ["CCc1cc(F)ccc1OC(c1cc(F)cc(F)c1)C1CCNC1 (stereo not shown)", 0.20],
  ["Fc1cc(F)cc(C(Oc2ccc(Cl)cc2F)C2CCNC2)c1 (stereo not shown)", 0.50],
  ["COc1ccc(F)cc1O[C@H](c1ccccc1)[C@@H]1CCNC1", 0.90],
  ["Fc1ccc(F)c(O[C@@H](c2ccccc2)[C@H]2CCNC2)c1", 0.10],
  ["COc1cc(Cl)ccc1O[C@@H](c1cc(F)cc(F)c1)[C@H]1CCNC1", 0.00],
  ["Fc1cccc(Cl)c1O[C@H](c1ccccc1)[C@@H]1CCNC1", -0.20],
  ["Fc1ccc(Cl)c(OC(c2ccccc2)C2CCNC2)c1 (stereo not shown)", 0.20],
  ["Cc1ccc(F)cc1OC(c1ccccc1)C1CCNC1 (stereo not shown) [29-16]", 0.20],
  ["COc1cc(F)ccc1OC(c1ccccc1)C1CCNC1 (stereo not shown)", -0.10],
  ["COc1cccc(F)c1O[C@@H](c1ccccc1)[C@H]1CCNC1", -0.70],
  ["Cc1cccc(F)c1O[C@@H](c1ccccc1)[C@H]1CCNC1", -0.70],
  ["Cc1ccc(OC(c2ccccc2)C2CCNC2)cc1F (stereo not shown)", 0.70],
  ["Cc1cc(F)cc(C(Oc2ccc(Cl)cc2F)C2CCNC2)c1 (stereo not shown)", 0.70],
  ["Fc1ccc(Cl)cc1OC(c1ccccc1)C1CCNC1 (stereo not shown)", 0.10],
  ["COc1cccc(F)c1OC(c1ccccc1)C1CCNC1 (stereo not shown)", 0.30],
  ["Cc1cc(F)ccc1OC(c1ccccc1)C1CCNC1 (stereo not shown)", 0.50],
  ["Fc1cc(Cl)cc(OC(c2ccccc2)C2CCNC2)c1 (stereo not shown)", 0.50],
  ["COc1ccc(Cl)cc1OC(c1ccccc1)C1CCNC1 (stereo not shown) [29-21]", 0.50],
  ["Fc1ccc(Cl)cc1O[C@H](c1ccccc1)[C@@H]1CCNC1", 0.60],
  ["COC(=O)c1cccc(Cl)c1O[C@@H](c1ccccc1)[C@H]1CCNC1", 0.50],
  ["Fc1cc(F)cc(C(Oc2cc(Cl)ccc2F)C2CCNC2)c1 (stereo not shown) [30-1]", 0.10]
]}
